Measured values drawn from ChEMBL document CHEMBL1144526 for this set.

Test system: MCF7
test_details: Antiproliferative activity against human MCF7 cells at 100 uM after 48 hrs
Format: functional
attribute_measured: Activity (%)
Could you give me the number in %? Just the number is fine.

Look over these answered cases.
# molecular_string, units_label, Activity
rows = [
    ("Cc1cc2nnc3c4ccccc4c(C#N)n3c2cc1C", "%", 76),
    ("Cc1cccc2c1nnc1c3ccccc3c(C#N)n21", "%", 72),
    ("COc1ccc2c(c1)nnc1c3ccccc3c(C#N)n21", "%", 63),
]

Now for another entry.
For the compound `N#Cc1c2ccccc2c2nnc3ccc(Cl)cc3n12` , report Activity.
51
